Provenance of the data: ChEMBL document CHEMBL1129282

ASSAY_SYSTEM: GABA-A receptor; alpha-1/beta-2/gamma-2 (Homo sapiens, UniProt P14867+P18507+P47870)
Sequence (P14867 whole entry): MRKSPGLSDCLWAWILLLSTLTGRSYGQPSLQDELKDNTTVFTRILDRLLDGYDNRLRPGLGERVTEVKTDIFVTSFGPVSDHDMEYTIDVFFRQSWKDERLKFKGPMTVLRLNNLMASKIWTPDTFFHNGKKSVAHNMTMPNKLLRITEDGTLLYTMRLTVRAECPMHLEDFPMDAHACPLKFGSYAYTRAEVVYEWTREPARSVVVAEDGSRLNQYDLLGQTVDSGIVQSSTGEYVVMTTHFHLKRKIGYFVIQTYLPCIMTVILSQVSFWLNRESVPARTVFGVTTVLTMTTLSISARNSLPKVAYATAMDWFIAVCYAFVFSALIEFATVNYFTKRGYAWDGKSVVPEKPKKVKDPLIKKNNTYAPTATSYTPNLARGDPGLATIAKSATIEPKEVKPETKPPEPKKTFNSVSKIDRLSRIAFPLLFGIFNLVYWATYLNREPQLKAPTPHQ
Sequence (P47870 whole entry): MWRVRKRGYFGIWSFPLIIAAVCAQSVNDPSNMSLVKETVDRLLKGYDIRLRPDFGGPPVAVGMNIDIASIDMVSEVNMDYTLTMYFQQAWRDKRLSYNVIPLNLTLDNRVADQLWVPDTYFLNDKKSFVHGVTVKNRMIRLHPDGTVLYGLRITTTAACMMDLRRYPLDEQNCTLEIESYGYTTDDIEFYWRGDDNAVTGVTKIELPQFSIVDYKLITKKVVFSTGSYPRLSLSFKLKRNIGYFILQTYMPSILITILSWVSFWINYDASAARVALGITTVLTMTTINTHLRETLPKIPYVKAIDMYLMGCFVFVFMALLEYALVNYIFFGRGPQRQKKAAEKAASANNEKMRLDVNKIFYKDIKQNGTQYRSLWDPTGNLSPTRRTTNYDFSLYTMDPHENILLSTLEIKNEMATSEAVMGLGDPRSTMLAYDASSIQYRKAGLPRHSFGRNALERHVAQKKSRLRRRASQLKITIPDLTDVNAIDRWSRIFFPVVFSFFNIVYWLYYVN
Sequence (P18507 whole entry): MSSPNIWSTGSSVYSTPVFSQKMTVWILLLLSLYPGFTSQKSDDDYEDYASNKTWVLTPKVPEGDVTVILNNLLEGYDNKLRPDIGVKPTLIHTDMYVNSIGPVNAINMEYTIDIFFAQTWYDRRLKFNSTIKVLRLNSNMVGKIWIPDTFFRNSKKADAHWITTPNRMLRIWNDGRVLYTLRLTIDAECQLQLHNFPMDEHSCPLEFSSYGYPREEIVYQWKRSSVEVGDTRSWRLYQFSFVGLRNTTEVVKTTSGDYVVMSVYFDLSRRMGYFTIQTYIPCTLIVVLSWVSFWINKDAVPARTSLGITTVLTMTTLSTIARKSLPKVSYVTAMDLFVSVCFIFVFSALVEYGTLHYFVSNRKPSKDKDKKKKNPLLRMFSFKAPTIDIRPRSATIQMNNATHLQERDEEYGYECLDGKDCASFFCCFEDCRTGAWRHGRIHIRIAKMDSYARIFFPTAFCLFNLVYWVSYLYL
PROTOCOL_DETAILS: Displacement of [3H]Flunitrazepam from GABA-A receptor alpha-1-beta-2-gamma-2 subunits expressed in Sf9 cells
Consider the following compounds; for each one, report its Ki.
Give bare numbers, in nM.

Below, each entry is followed by its recorded Ki result.
INSERT INTO assay_data (smi, recorded_measurement) VALUES
  ('O=C(c1ccccc1)N1Cc2c(-c3noc(C4CC4)n3)ncn2-c2ccccc21', 0.3),
  ('O=C(N1CCOCC1)N1Cc2c(-c3noc(C4CC4)n3)ncn2-c2ccc(F)cc21', 0.3),
  ('Cc1cccc2c1N(C(=O)N1CCOCC1)Cc1c(-c3noc(C4CC4)n3)ncn1-2', 4.7),
  ('CC(C)n1c(=O)c2c(-c3noc(C4CC4)n3)ncn2c2ccccc21', 3.5);

Exam item: Look up Ki: `O=C(N1CCOCC1)N1Cc2c(-c3noc(C4CC4)n3)ncn2-c2cccc(F)c21`
Marked response: 0.17
